Measured Fold-increase of EC50 (Reduced rate of binding affinity) accompanies every entry in the list below.
systemTested: T1, human transferrin receptor (human, UniProt P02786 89-760, limits assumed)
T1 construct: also called hTfR; human TfR
T1 sequence (P02786 89-760 limits assumed): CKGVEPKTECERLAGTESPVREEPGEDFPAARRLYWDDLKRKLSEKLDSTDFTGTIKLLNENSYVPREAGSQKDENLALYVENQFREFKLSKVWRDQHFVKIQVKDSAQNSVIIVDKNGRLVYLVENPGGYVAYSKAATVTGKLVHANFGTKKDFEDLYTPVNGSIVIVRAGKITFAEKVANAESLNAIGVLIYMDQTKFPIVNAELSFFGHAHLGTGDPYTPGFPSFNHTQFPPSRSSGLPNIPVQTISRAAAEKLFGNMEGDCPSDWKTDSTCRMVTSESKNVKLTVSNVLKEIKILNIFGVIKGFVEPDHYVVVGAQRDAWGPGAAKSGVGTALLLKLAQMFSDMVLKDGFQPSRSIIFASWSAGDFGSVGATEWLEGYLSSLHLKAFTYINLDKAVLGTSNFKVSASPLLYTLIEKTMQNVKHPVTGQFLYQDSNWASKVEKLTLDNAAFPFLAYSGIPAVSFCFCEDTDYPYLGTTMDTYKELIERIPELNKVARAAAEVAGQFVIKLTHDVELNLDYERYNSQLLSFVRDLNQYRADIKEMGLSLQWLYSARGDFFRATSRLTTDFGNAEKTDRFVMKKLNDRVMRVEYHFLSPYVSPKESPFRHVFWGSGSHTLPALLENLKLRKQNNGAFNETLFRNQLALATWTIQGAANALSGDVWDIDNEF
assayProcedure: ELISA, plate-coated human TfR; mutant against WT
Note: unit fold is implicit; provide only the numeric part.

anti-human transferrin receptor antibody 128.1 with VH Y99H mutation (antibody, V domains shown) VH: EVQLQQSGPELVKPGASMKISCKASGYSFTGYTMNWVKQSHGENLEWIGRINPHNGGTDYNQKFKDKAPLTVDKSSNTAYMELLSLTSEDSAVYYCARGYYYHSLDYWGQGTSVTVSS VL: QIVLTQSPAIMSASPGEKVTMTCSASSSIDYIHWYQQKSGTSPKRWIYDTSKLASGVPARFSGSGSGTSYSLTISSMEPEDAATYYCHQRNSYPWTFGGGTRLEIR ... 9.2

// below: Fold-increase of EC50 (Reduced rate of binding affinity) requested for another binder
Exercise: Given anti-human transferrin receptor antibody 128.1 with VL Y94A mutation (antibody, V domains shown) VH: EVQLQQSGPELVKPGASMKISCKASGYSFTGYTMNWVKQSHGENLEWIGRINPHNGGTDYNQKFKDKAPLTVDKSSNTAYMELLSLTSEDSAVYYCARGYYYYSLDYWGQGTSVTVSS VL: QIVLTQSPAIMSASPGEKVTMTCSASSSIDYIHWYQQKSGTSPKRWIYDTSKLASGVPARFSGSGSGTSYSLTISSMEPEDAATYYCHQRNSAPWTFGGGTRLEIR , state its recorded Fold-increase of EC50 (Reduced rate of binding affinity).
Key: 1.2

These measurements were taken from patent US20240317877A1.
